Multiple publications report pIC50 for Histamine H1 receptor (Homo sapiens); what follows is a combined list.
Give bare numbers, as −log10 of the molar value.

[[record]]
molecule = "CN(C)CCC=C1c2cc(C(C)(C)C(=O)O)ccc2OCc2ccsc21"
result_value = 7.22

[[record]]
molecule = "O=C(O)c1cccc(CN2CCC(OC(c3ccccc3)c3ccc(Cl)cc3)CC2)n1 (stereo not shown)"
result_value = 7.89

[[record]]
molecule = "O=C(O)c1ccnc(CN2CCC(OC(c3ccccc3)c3ccc(F)cc3)CC2)c1 (stereo not shown)"
result_value = 8.17

[[record]]
molecule = "CN1CCN(CC/C=C2\\c3cc(CC(=O)O)ccc3OCc3ccsc32)CC1"
result_value = 7.05

[[record]]
molecule = "O=C(O)c1ccc(CN2CCC(OC(c3ccccc3)c3ccc(F)cc3)CC2)cn1 (stereo not shown)"
result_value = 7.66


Your task in this section: give pIC50 for each listed record.
1. CON(C)C(=O)c1cc2c(s1)CCc1ccccc1C2=C1CCN(C)CC1
2. CCOC(=O)C=Cc1cc2c(s1)C(=O)Cc1ccccc1C2=C1CCN(C)CC1
3. CN(C)CC/C=C1\c2cc(CC(=O)O)ccc2CCc2ccsc21
4. COC(=O)Cc1ccc2c(c1)C(=C1CCN(CCNC(N)=O)CC1)c1sccc1CO2
5. O=C(O)c1cccc(CN2CCC(OC(c3ccccc3)c3cccc(F)c3)CC2)n1 (stereo not shown)
6. O=C(O)c1cccc(CN2CCC(=C3c4ccccc4CCc4ccccc43)CC2)n1
7. O=C(O)c1cnn(CN2CCC(OC(c3ccccc3)c3ccccc3)CC2)c1
8. O=C(O)c1cccc(CN2CCN(C(c3ccccc3)c3ccc(Cl)cc3)CC2)n1 (stereo not shown)

[out]
1. 7.42
2. 7.53
3. 8.07
4. 7.96
5. 7.66
6. 7.64
7. 7.77
8. 7.52

Your task in this section: give pIC50 for each listed record.
1. O=C(O)c1cccc(CN2CCN(C(c3ccc(F)cc3)c3ccc(F)cc3)CC2)n1
2. O=C(O)c1cc(CN2CCC(OC(c3ccccc3)c3ccc(F)cc3)CC2)cs1 (stereo not shown)
3. CCCNC(=O)c1cc2c(s1)CCc1ccccc1C2=C1CCN(C)CC1
4. O=C(O)c1ccnc(CN2CCC(OC(c3ccccc3)c3cccc(Cl)c3)CC2)c1 (stereo not shown)
5. O=C(O)Cc1ccc2c(c1)/C(=C\CCN1CCC(=O)CC1)c1sccc1CO2
6. O=C(O)c1cncc(CN2CCC(OC(c3ccccc3)c3ccccc3)CC2)c1
7. CN(C)CCC=C1c2ccccc2CCc2sc(C(C)(C)C(=O)O)cc21
8. O=C(O)Cc1ccc2c(c1)/C(=C\CCN1CCN(c3ccccc3)CC1)c1sccc1CO2

[out]
7.66
8.12
7.56
7.62
7.22
7.82
7.13
7.96

###

Multiple publications report IC50 for Histamine H1 receptor (Homo sapiens, UniProt P35367); what follows is a combined list.
One number for each entry, in nM.

These solved cases illustrate the format of a correct answer.
[[record]]
compound = "O=C(O)c1ccnc(CN2CCC(OC(c3ccccc3)c3ccc(Cl)cc3)CC2)c1 (stereo not shown)"
assay_metric = "IC50"
result_value = 19

[[record]]
compound = "CN1CCC(=C2c3ccccc3CCc3sc(C(=O)NCCF)cc32)CC1"
assay_metric = "IC50"
result_value = 37.8

[[record]]
compound = "CC(O)CNC(=O)c1cc2c(s1)CCc1ccccc1C2=C1CCN(C)CC1 (stereo not shown)"
assay_metric = "IC50"
result_value = 93.3

[[record]]
compound = "O=C(O)c1cccc(CN2CCC(OC(c3ccc(F)cc3)c3cccc(F)c3)CC2)n1 (stereo not shown)"
assay_metric = "IC50"
result_value = 17

[[record]]
compound = "CN(C)CC/C=C1\\c2cc(CC(=O)O)ccc2OCc2ccsc21"
assay_metric = "IC50"
result_value = 56.9

[[record]]
compound = "O=C(O)c1cccc(CN2CCC(OC(c3ccccc3)c3ccccc3F)CC2)n1 (stereo not shown)"
assay_metric = "IC50"
result_value = 29


Your task in this section: give IC50 for each listed record.
1. O=C(O)c1cccc(CN2CC[C@H](OC(c3ccc(F)cc3)c3ccc(F)cc3)C2)n1
2. CCN1CCC(=C2c3cc(CCCC(=O)O)ccc3OCc3ccsc32)CC1
3. CCOC(=O)CCc1cc2c(s1)CCc1ccccc1C2=C1CCN(C)CC1
4. CN1CCC(=C2c3ccccc3CCc3sc(C(=O)NCCO)cc32)CC1

[out]
[10, 90.9, 16.9, 52.8]

Your task in this section: give IC50 for each listed record.
1. CN1CCC(=C2c3cc(CCCC(=O)O)ccc3OCc3ccsc32)CC1
2. CN1CCC(=C2c3ccccc3CCc3sc(CNC(N)=O)cc32)CC1
3. O=C(O)c1cccc(C(F)(F)N2CCC(OC(c3ccccc3)c3ccccc3)CC2)n1
4. O=C(O)c1cccc(CN2CCC(=C3c4ccccc4C=Cc4cccnc43)CC2)n1
5. CN1CCC(=C2c3cc(CCCCC(=O)O)ccc3OCc3ccsc32)CC1
6. CN(C)CC/C=C1\c2cc(CC(=O)O)ccc2OCc2sccc21

[out]
[46.7, 32.5, 12, 14, 90.5, 70.7]
